- assay-protocol: endothelial E-selectin expression blockers – imaging, HUVEC, immunofluorescence, MLSMR starter and 10KST1 sets, primary screen (AID 487);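 further: 100% = median nuclei count of all wells on the same plate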
- reported-conditions: HUVEC TNFalpha-induced E-selectin immunofluorescence imaging, at 2 µM; measured here: cell number, toxicity
Can you tell me nuclei count for the items I'm about to list?
Record the value in %, omitting the unit from your answer.

Inquiry: Return reported nuclei count; argument: CCN(CC)S(=O)(=O)N1CCC(C(=O)NCC2COc3ccccc3O2)CC1 (centres undefined)
Reply text: 115

Inquiry: Return reported nuclei count; argument: Nc1nnc(SCCOc2ccccc2)s1
Reply text: 98.8

Inquiry: Return reported nuclei count; argument: COc1ccc(C2CC(=O)c3cnc(NC(=O)c4ccccc4OC)nc3C2)c(OC)c1 (centres undefined)
Reply text: 107

Inquiry: Return reported nuclei count; argument: COc1cccc(C(=O)CSc2nnc(COc3cccc4cccnc34)o2)c1
Reply text: 197

Inquiry: Return reported nuclei count; argument: CCOC(=O)C1=C(C)NC(C)=C(C(=O)OC)C1c1cccc([N+](=O)[O-])c1 (centres undefined)
Reply text: 103

Inquiry: Return reported nuclei count; argument: O=C1c2oc3ccccc3c(=O)c2C(c2ccccn2)N1Cc1ccccc1 (centres undefined)
Reply text: 125

Inquiry: Return reported nuclei count; argument: Cc1cccc(N2CN=c3s/c(=C\c4ccncc4)c(=O)n3C2)c1
Reply text: 121

Inquiry: Return reported nuclei count; argument: CC(=O)CC(=O)Nc1ccccc1NC(C)=O
Reply text: 110

Inquiry: Return reported nuclei count; argument: COCCCNC(=O)CCc1nc2cccnc2n1Cc1ccc(OC)cc1
Reply text: 98.8
